# Tested on: MS2 coat protein
# measurement notes: apparent KD of MS2 coat protein; designed switch direction (-1 OFF switch, 1 ON switch): -1; higher = weaker reporter binding
# condition context: input ligand: FMN 200 uM
property name: apparent KD of MS2 coat protein (nM)
Answers are plain numbers, in nM.

- residue string: "CUGCUGGAGCUUUGCUUUAGUCGUACAUGAGGAUCACCCAUGUAGGAUAUGGUAGGCUUUGCUUACUAGAAGGAUGGAGUGGUC [salish99_ExNG3_r04_607] (Eterna round: R96, puzzle: Exclusion NG 3)"
  apparent KD of MS2 coat protein (nM): 166
- residue string: "CCAAGCUUUUUCAUUAACAACAUGAGGAUCACCCAUGUGUAAGCUAUUAGGUUUGGGCUCUUUAGUGCUCGUCUUAU [JR_STOV1_Sub041] (Eterna round: R97, puzzle: Sensor, turn-off variant 1)"
  apparent KD of MS2 coat protein (nM): 14.5
- residue string: "UCUCAGUCAGGAUAUCGUUAAUUUAAUUGUUUGUAUUAGUUCGAGAAGGGACAUGAGGAUCACCCAUGUACUCU [Ex4 #18] (Eterna round: R97, puzzle: Exclusion 4)"
  apparent KD of MS2 coat protein (nM): 29.8
- residue string: "UUACUCGCAGGAUAUACGGGACAUACACAUCAAACUACACGACAUGAGGAUCACCCAUGUAGAAGGGCGUUACA [Blue and Green] (Eterna round: R97, puzzle: Exclusion 2)"
  apparent KD of MS2 coat protein (nM): 73.5
- residue string: "CCCGUGUGAGGAUAUCGUUCACUUGGCGAAAGUCGAGUGGACGAGAAGGUACAUGAGGAUCACCCAUGUGCGGG [-36.1, -35.4 kcal, A 24%] (Eterna round: R97, puzzle: Exclusion 4)"
  apparent KD of MS2 coat protein (nM): 155
- residue string: "UAUUGGAUAGGAUAUACAUGAGGAUCACCCAUGUGGACGGCUAAGCCUACCGCGCAGAGUAGAAGGGUCGGGUG [Eternabot (L1) Solution 66] (Eterna round: R97, puzzle: Exclusion 3)"
  apparent KD of MS2 coat protein (nM): 161

Hi! Can you tell me apparent KD of MS2 coat protein for each of these sequences?
1. CGCAACACAUGAGGAUCAAACAUGAGGAUCACCCAUGUAUAACAAGCUUUUUGCUCGUCUUAUAAAUAUGUGUUGCG [Electric Eye 2 - Jieux - Sensor, turn-off variant 1] (Eterna round: R97, puzzle: Sensor, turn-off variant 1)
2. CCAAGCUACUUCAUUAUCCACAUGAGGAUCACCCAUGUCUAGGCAAUUAUGACCUGCCCGUCAGGAGCUCGUCUUAU [Sensor-V1 #40] (Eterna round: R97, puzzle: Sensor, turn-off variant 1)
3. AGGUCCUUCUGGAGACAUGAGGAUCACCCAUGUCGGGUCAGCGAGGAUAUCGGUCAAUAAUGUGACGAGAAGGCGCGGACCGAU [Ex NG3 #57] (Eterna round: R96, puzzle: Exclusion NG 3)
4. GCAUGUUGGUAGGAUAUGCAGCGGAAACCGCUAGUAGAAGGAUUGACAUGAGGAUCACCCAUGUGAACCGAAGG [Arcelace] (Eterna round: R97, puzzle: Exclusion 6)

A)
1. 16.9
2. 35.1
3. 55.5
4. 186

* * *

# Test system: K4 kissing-loop RNA reporter;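 further: bound reporter read as fluorescence of individual clusters on recovered sequencing chips by microscopy, with normalized cluster intensities fitted with a binding model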
# measurement notes: apparent KD of K4 kissing-loop reporter; higher = weaker reporter binding
# condition context: Eterna round: R107; input ligand: theophylline 20 uM
Assign 1 (yes) to entries whose apparent KD of K4 kissing-loop reporter meets or exceeds 300 nM; assign 0 (no) to the rest.

- residue string: "UUUCUUUUUUUGAUGUUUUUUGUAUAAUGGCAGGAUAUCGUAGAUGCGAGAAGGGCUUUUAUGCGUUAUGAGUGAUGUUUGUAGG [aaxazvmullin]"
  qualitative label: "0 (no)"

Q) # bool: apparent KD of K4 kissing-loop reporter of AGUAGUUGGACGGCCGCCACUAGAACGGCUUUGCCAAAGGCAGAGCACUAGAGUGAUGUUCUAGCUAGGACCGGGUCCAACUACA [Omei KL Tryp B SS A v3] >= 300 nM
A) 1 (yes)

Q) # bool: apparent KD of K4 kissing-loop reporter of AGUGAUAUAUGAGGAUAUGGGUUUGUUAAUGAGUUAUUUUUAGUGUUGUUUGGUUAGUGAUGUUAUUUAGAAGGCGUGAGUGAUG [rrwswwmjmullin] >= 300 nM
A) 0 (no)

Q) # bool: apparent KD of K4 kissing-loop reporter of UAUAGACAAGUGAUGUUUGUCAUAUCCGAAGGAGCGUCUUCUAAGACAGGUAGGUCGCGGAUUAAUUUUGUUAUGAUACUAUUUA [JR_SSArginiA_Sub016] >= 300 nM
A) 0 (no)

Q) # bool: apparent KD of K4 kissing-loop reporter of UGUACCGAGUUAGGAUAUGUCGUCGAAAGACGAAAUGGAGUGAUGUUCCUUAAACUGCGAAAGCAGACAGAAGGGAUUUGGUACU [FmnBS 29 U11+U77] >= 300 nM
A) 1 (yes)

Q) # bool: apparent KD of K4 kissing-loop reporter of AAGACUGCAGGAAGGAGCGGCGGACGGAGUGAUGUUCCGGCUAGUGAUGUUAGCAAACACCGCCAGGUAGGUCGCCUGUUGCUCU [Same State Arginine B GF7] >= 300 nM
A) 0 (no)

Q) # bool: apparent KD of K4 kissing-loop reporter of AAUAAGUGUCAGCGAGUGAUGUUCGACGAUACCAGCCUCGAUAGAGGCCCUUGGCAGCGUAACGCAUGCCAAACUGGCACAAUAA [#SwitchBubble 7 #K4Early] >= 300 nM
A) 1 (yes)

Q) # bool: apparent KD of K4 kissing-loop reporter of GCCGUAGAUUGAAGGAGCGGGAGAGGGAAAGUGAUGUUUUCUCUAUGACGGCGUCCUCGAUCCCAGGUAGGUCGCAAUCUACGGC >= 300 nM
A) 0 (no)

Q) # bool: apparent KD of K4 kissing-loop reporter of AUUCUUAUAAUAACACUAUAUACAACUGAAGGAGCGACAAUAAAGUCAGGUAGGUCGCAGAAUAAAUGAGUGAUGUUCAUUUUUA [JR_ExcArginiA_Sub011] >= 300 nM
A) 0 (no)

Q) # bool: apparent KD of K4 kissing-loop reporter of GUCCCGAGUGAUGUUCGGGUCGUUCGGGAAGGAGCGCCCGGAAGGGCAGGUAGGUCGCCCGGAUCCCUCAGGUAACUGAGGGACC [#2 Same State - Arginine A Attempt #25 (HarryS)] >= 300 nM
A) 1 (yes)

Q) # bool: apparent KD of K4 kissing-loop reporter of GUCCCAGUGAUGUUGGUAGGCGGGCGGGAUACCAGCGGAGACUCACGCCCUUGGCAGCCCACAUAUCCCGCGUAGGGAUUAGCCC [Same State - Theophylline A (Freestyle 23)] >= 300 nM
A) 1 (yes)

Q) # bool: apparent KD of K4 kissing-loop reporter of AUUUAUUCGAGUGAUGUUCGUGAUUUUUCAGAGGAUAUGCGUAAUAGCAGAAGGCUGUAUUUAUAUAUAUUUUGAUUUUUUUAAA [JR_Nu3_ExcFMNA_Sub024] >= 300 nM
A) 0 (no)

Q) # bool: apparent KD of K4 kissing-loop reporter of CGGACGGUAUCGGCCGCCACUCUGAAGACAGUGAUGUUGUCCGUGCAGUAUUUAGGAAAGCCGCGGAGGACCGGGAUGCGUCACU [theeternabot_sameState_KL_Trp_B_48] >= 300 nM
A) 0 (no)

Q) # bool: apparent KD of K4 kissing-loop reporter of UUUCGUCUCUGAGGAUAUCAGACGAGAGUGAUGUUCUCCCAAAGCCCAGUGAUGUUGGAUGCUAUCUGAGAAGGCAGUGGGCGAA [Same State FMN B GF 12] >= 300 nM
A) 1 (yes)

Q) # bool: apparent KD of K4 kissing-loop reporter of AAUGCGCAGGGAAGGAGCGCCGUCCAGUGAUGUUGGAGUUAAAUACCAGUGAUGUUGGUUAGGCAGGUAGGUCGCCCUAAAGCGC [Exclusion Arginine B GF 1] >= 300 nM
A) 0 (no)

Q) # bool: apparent KD of K4 kissing-loop reporter of UUUUUGGAGAAUUAUAGUGAUGUUAUGAAGAAGGAUAUCUAAAGAUGGAGAAGGUUUAAUAGUUAAGGGAUGGAGGGUGGGUGGG [ExFMNA.P] >= 300 nM
A) 0 (no)

* * *

# Tested on: MS2 coat protein
# measurement notes: apparent KD of MS2 coat protein; designed switch direction (-1 OFF switch, 1 ON switch): -1; higher = weaker reporter binding
# condition context: input ligand: none
Task for the reader: assign each of the following sequences its reported apparent KD of MS2 coat protein.
Write your answer as a measured quantity: the number, then the unit.

- residue string: "CUCCGGCGUGUAGGAUAUGGAUCCGAUUAGGAUCCAGAAGGACAUGAGGAUCACCCAUGUACAUGUCGGCGGUCGUCACCGGGC [salish99_ExNG1_r04_209] (Eterna round: R96, puzzle: Exclusion NG 1)"
  target under test: "MS2 coat protein"
  apparent KD of MS2 coat protein: "20.1 nM"
- residue string: "CGGCAAAGGUAGGAUAUGCUAGACGAUAGUCUAGCAGAAGGACCUACAUGAGGAUCACCCAUGUGUCCAAGCCG [Mat - Exclusion 6 - Eli Mod - D19] (Eterna round: R97, puzzle: Exclusion 6)"
  target under test: "MS2 coat protein"
  apparent KD of MS2 coat protein: "105 nM"

Short answer for UAUUAGCAAGCGAGAUCCCACAUGAGGAUCACCCAUGUGCUCGUCUUAAGCCCAGAAUUACUGGGCGCUCGUCUUAU [Winner reversed engineered 20] (Eterna round: R97, puzzle: Sensor, turn-off variant 1) : apparent KD of MS2 coat protein was 12.7 nM
